# Test system: HeLa MZ
# test_summary: whole-cell filipin (free cholesterol) integrated intensity, Z-score; higher = more cholesterol staining
# test_settings: compound concentration in added solution (µM; 5 µl added to 20 µl cells): 10; 18 h
Structures can show the parent of a compound that is named as a salt.
measurement_kind: whole-cell filipin (z-score)
Give bare numbers.

Batch: whole-cell filipin (z-score) for all items listed.
1. Clc1ccc2c(c1)C(N1CCNCC1)=Nc1ccccc1O2
2. CC(=O)N[C@@H](CC(C)C)C(=O)O
3. NC(Cc1cc(I)c(Oc2cc(I)c(O)c(I)c2)c(I)c1)C(=O)O (stereo not given)
4. CC(C)N1CCN(c2ccc(OCC3COC(Cn4cncn4)(c4ccc(Cl)cc4Cl)O3)cc2)CC1 (stereo not given)
5. O=C(O)c1cn(C2CC2)c2cc(N3CCNCC3)c(F)cc2c1=O [Ciprofloxacin hydrochloride hydrate]

Result:
1: -0.797; 2: 0.0999; 3: -0.619; 4: 1.5; 5: -0.971

----------
Field: filipin (z-score). Provide a value for each of the compounds that follow.
# System: HeLa MZ
# test_summary: filipin (cholesterol) integrated intensity within LBPA endosomes, Z-score; higher = more cholesterol in LBPA endosomes
# test_settings: compound concentration in added solution (µM; 5 µl added to 20 µl cells): 10; 18 h

Solved entries (count: 2):
CCn1cc(C(=O)O)c(=O)c2cc(F)c(N3CCN(C)CC3)cc21	-0.621
C[C@]12CC[C@@H]3c4ccc(OS(=O)(=O)O)cc4CC[C@H]3[C@@H]1CCC2=O [Estropipate]	-0.5

Batch: filipin (z-score) for all items listed.
1. C[C@H](CCC(=O)O)[C@H]1CC[C@H]2[C@@H]3[C@@H](O)C[C@@H]4C[C@H](O)CC[C@]4(C)[C@H]3CC[C@]12C
2. NC(Cc1cc(I)c(Oc2cc(I)c(O)c(I)c2)c(I)c1)C(=O)O (centres undefined)

Result:
1. -0.53
2. -0.6

----------
# System: HeLa MZ
# test_summary: LBPA endosome anti-LBPA integrated intensity (sum per cell), Z-score; higher = more LBPA staining
# test_settings: compound concentration in added solution (µM; 5 µl added to 20 µl cells): 10; 18 h
Structures can show the parent of a compound that is named as a salt.
Please use Condition met whenever LBPA endosome anti-LBPA integrated intensity (z-score) is not below 0.5, and Condition not met whenever it is.

Answered examples (3):
C[C@H]1NC(=O)NC1=O	Condition not met
CC(CN(C)C)CN1c2ccccc2CCc2ccccc21 (stereo not drawn) [Trimipramine maleate salt]	Condition met
COc1cc2ncnc(Nc3ccc(F)c(Cl)c3)c2cc1OCCCN1CCOCC1	Condition met

Task: Entry CC[N+](C)(CC)CCC[n+]1c(-c2ccccc2)c2cc(N)ccc2c2ccc(N)cc21 [Propidium iodide] : is its LBPA endosome anti-LBPA integrated intensity (z-score) no less than 0.5?
Result: Condition not met

Task: Entry Nc1cc(C(Cl)=C(Cl)Cl)c(S(N)(=O)=O)cc1S(N)(=O)=O : is its LBPA endosome anti-LBPA integrated intensity (z-score) no less than 0.5?
Result: Condition not met

Task: Entry CC(C)(C)C(=O)OCOC(=O)[C@@H]1N2C(=O)[C@@H](NC(=O)[C@H](N)c3ccccc3)[C@H]2SC1(C)C : is its LBPA endosome anti-LBPA integrated intensity (z-score) no less than 0.5?
Result: Condition not met

Task: Entry CO[C@@]1(NC(=O)Cc2cccs2)C(=O)N2C(C(=O)O)=C(COC(N)=O)CS[C@@H]21 [Cefoxitin sodium salt] : is its LBPA endosome anti-LBPA integrated intensity (z-score) no less than 0.5?
Result: Condition not met

Task: Entry CCN1CCCC1CNC(=O)c1cc(S(=O)(=O)CC)c(N)cc1OC (stereo not drawn) [Amisulpride] : is its LBPA endosome anti-LBPA integrated intensity (z-score) no less than 0.5?
Result: Condition not met

Task: Entry O=C(N/N=C/c1ccc([N+](=O)[O-])o1)c1ccc(O)cc1 [Nifuroxazide] : is its LBPA endosome anti-LBPA integrated intensity (z-score) no less than 0.5?
Result: Condition not met

// data source = the supplement of paper PMC6607015
